This section presents pIC50 values reported for Ubiquitin carboxyl-terminal hydrolase isozyme L3 (Homo sapiens, UniProt P15374) in the literature.
Value format note: pIC50 is -log10 of concentration (mol/L); just state the number.

These solved cases illustrate the format of a correct answer.
compound	pIC50
COCc1nnc2nc3c(nn12)C(=O)c1ccccc1-3	6.58
CC(C)c1nnc2nc3c(nn12)C(=O)c1ccccc1-3	6.10
C=CCON=C1c2ccccc2-c2nn3c(C)nnc3nc21 (mixture of isomers)	6.57
ON=C1c2ccccc2-c2nn3nnnc3nc21 (mixture of isomers)	7.24

Now consider the entry below.
Exam item: Endpoint output: pIC50 of O=C1c2ccccc2-c2nc3nnc(CO)n3nc21 . Value?
Marked response: 6.41

---

This section presents IC50 values reported for UniProt:P15374 in the literature.
So basically, if IC50 comes in under 0.6 µM it's 1.0, and if it's 0.6 µM or more it's 0.0.

Take a look at these entries with their results.
compound	class_label
CC1CCCCN1CCCNC(=O)c1ccc2c(Cl)c3c(nc2c1)CCCC3 (stereo not shown)	0.0
CN1CCCC1CCNC(=O)c1ccc2c(Cl)c3c(nc2c1)CCCC3 (stereo not shown)	0.0
CCc1nnc2nc3c(nn12)-c1cc(OC)c(OC)cc1C3=O	1.0
O=C(NCC1CCNCC1)c1ccc2c(Cl)c3c(nc2c1)CCCC3	0.0
CN(C)CCNC(=O)c1ccc2c(Cl)c3c(nc2c1)CCCC3	0.0

Exam item: I'd appreciate it if you could check whether Cn1nc2nc3c(nc2n1)-c1ccccc1C3=O has IC50 smaller than 0.6 µM.
Marked response: 0.0

Exam item: I'd appreciate it if you could check whether CCc1nnc2nc3c(nn12)C(=O)c1ccccc1-3 has IC50 smaller than 0.6 µM.
Marked response: 1.0

Exam item: I'd appreciate it if you could check whether O=C(CCc1cccs1)N1CCC(O)(Cn2cnc3ccccc3c2=O)CC1 has IC50 smaller than 0.6 µM.
Marked response: 0.0

Exam item: I'd appreciate it if you could check whether CCC(CC)C(=O)N1CCC(O)(Cn2cnc3cc(Cl)ccc3c2=O)CC1 has IC50 smaller than 0.6 µM.
Marked response: 0.0

Exam item: I'd appreciate it if you could check whether CCCCCCCCCCON=C1c2ccccc2-c2nn3nnnc3nc21 (mixture of isomers) has IC50 smaller than 0.6 µM.
Marked response: 0.0

Exam item: I'd appreciate it if you could check whether Cc1nnc2nc3c(nn12)C(=O)c1ccccc1-3 has IC50 smaller than 0.6 µM.
Marked response: 1.0

Exam item: I'd appreciate it if you could check whether CCCN(CCC)CCCNC(=O)c1ccc2c(Cl)c3c(nc2c1)CCCC3 has IC50 smaller than 0.6 µM.
Marked response: 0.0

Exam item: I'd appreciate it if you could check whether CC(Cc1cccs1)C(=O)N1CCC(O)(Cn2cnc3cc(Cl)ccc3c2=O)CC1 (stereo not shown) has IC50 smaller than 0.6 µM.
Marked response: 0.0

Exam item: I'd appreciate it if you could check whether CN1CCN(CCCNC(=O)c2ccc3c(Cl)c4c(nc3c2)CCCC4)CC1 has IC50 smaller than 0.6 µM.
Marked response: 0.0

Exam item: I'd appreciate it if you could check whether CN(C)c1ccc(CN2CCC(CNC(=O)c3ccc4c(Cl)c5c(nc4c3)CCCC5)CC2)cc1 has IC50 smaller than 0.6 µM.
Marked response: 0.0

Exam item: I'd appreciate it if you could check whether O=C1c2ccccc2-c2nc3nn(Cc4ccccc4)nc3nc21 has IC50 smaller than 0.6 µM.
Marked response: 0.0

Exam item: I'd appreciate it if you could check whether COc1ccc(CN2CCC(CNC(=O)c3ccc4c(Cl)c5c(nc4c3)CCCC5)CC2)cc1 has IC50 smaller than 0.6 µM.
Marked response: 0.0

Exam item: I'd appreciate it if you could check whether CCCCc1nnc2nc3c(nn12)C(=O)c1ccccc1-3 has IC50 smaller than 0.6 µM.
Marked response: 1.0
